Answer each item with its documented growth.
Tested on: NCI-H322M lung
Assay: NCI-60 one-dose screen, 48 h (100 = growth as untreated, 0 = no growth, -100 = all killed)
Settings: 10 µM unless noted
About 83,000 compounds went through this panel and 20% of them were active in at least one assay; those are over-represented in the sample as a whole.
Answer format: numeric, % implied, no suffix.

Q) // query growth value for entry `Cc1c2ccncc2c(C)c2c1c1ccccc1n2CCCCCC(=O)O`
A) 96.1

Q) // query growth value for entry COc1cc(OCc2cccc(-c3ccccc3)c2C)cc(OC)c1CN1CCCCC1C(=O)NCCOCCOCCN (stereo not given)
A) 89.6

Q) // query growth value for entry `O=C1c2ccccc2-c2c1c1ccncc1c(=O)n2CCCn1ccnc1`
A) 83.8

Q) // query growth value for entry `COc1ccc2c(c1)c(-c1nc(-c3cn(C)c4ccncc34)cs1)cn2C`
A) 95.7

Q) // query growth value for entry `C=CCn1c(SCC(=O)Nc2ccc(C(=O)/C=C/c3cc(OC)c(OC)c(OC)c3)cc2)nnc1-c1cc(-c2ccc(S(N)(=O)=O)cc2)nc2ccccc12`
A) 105

Q) // query growth value for entry `Cc1c(-c2cnc3ccc(Cl)cc3c2C(=O)O)nnn1-c1ccc(Cl)cc1`
A) 93.6

Q) // query growth value for entry CN1C(=O)N(C)C2C1NN=c1s/c(=C\c3ccc(F)cc3)c(=O)n12 (stereo not given)
A) 53.6

Q) // query growth value for entry `O=C(O)COc1ccc(F)cc1`
A) 99.6

Q) // query growth value for entry `O=C(N/N=C/c1ccccc1Cl)c1ccccc1Nc1ccnc(C(F)(F)F)c1`
A) 6.53

Q) // query growth value for entry `Nc1ncc(-c2ccc3ncnc(N4CCc5ccc(Cl)cc54)c3c2)cn1`
A) -15.4

Q) // query growth value for entry `O=c1ccc2nc(-c3ccccc3)nn(-c3ccccn3)c-2c1`
A) 102

Q) // query growth value for entry `O=C(COc1ccc(/C=C2\Oc3ccccc3C2=O)cc1)Nc1nccs1`
A) 89.3

Q) // query growth value for entry `CCN(CC)CCOc1ccc(/C(=C(\C)Cc2ccc(OC)cc2)c2ccc(O)cc2)cc1`
A) 54.5

Q) // query growth value for entry `O=C(/C=C/c1ccc([N+](=O)[O-])cc1)c1cccc(Nc2nc(Nc3ccccc3)nc(Nc3ccccc3)n2)c1`
A) 75.9

Q) // query growth value for entry `CCOC(=O)/C=C1\S/C(=N\Nc2cc(=O)[nH]c3ccc(OC)cc23)N(c2ccccc2)C1=O`
A) 101

====

Tested on: PC-3 prostate
Assay: NCI-60 one-dose screen, 48 h (100 = growth as untreated, 0 = no growth, -100 = all killed)
Conditions: 10 µM unless noted
Compounds without any hit were thinned out: in the full panel of roughly 83,000, 20% have a hit.
# TRUE = growth below 80% (exclusive); FALSE = growth at/above 80%

Q) Threshold test, growth < 80%: `Cc1cc([N+](=O)[O-])ccc1NC(=O)c1ccc2c(c1)nc(-c1ccccc1)n2C1CCCCC1`
A) TRUE

Q) Threshold test, growth < 80%: `CC(C)=CC(=O)C1C(=O)c2ccccc2C1=O`
A) FALSE

Q) Threshold test, growth < 80%: `C#Cc1ccc(NC(=O)Cc2ccc(/C=C/C(=O)c3nccn3C)cc2)cc1`
A) TRUE

Q) Threshold test, growth < 80%: `CN1CCN(Cn2nc(-c3cc(Cl)cc(Cl)c3Cl)oc2=S)CC1`
A) FALSE

Q) Threshold test, growth < 80%: `CC(=O)c1ccc(Nc2nccc(-c3ccc(Cl)cc3)n2)cc1`
A) FALSE

Q) Threshold test, growth < 80%: `CCN(CC)CCOc1ccc(/C(=C(\C)Cc2ccc(OC)cc2)c2ccc(O)cc2)cc1`
A) TRUE

Q) Threshold test, growth < 80%: `Cc1ccc2nc(/C=C/c3ccc(N(C)C)cc3)cc(C)c2c1`
A) TRUE

Q) Threshold test, growth < 80%: `C=C(C)[C@@H]1CC[C@]2(C(=O)NC(C)=O)CC[C@]3(C)[C@H](CC[C@@H]4[C@@]5(C)CCCNC(C)(C)[C@@H]5CC[C@]43C)[C@@H]12`
A) TRUE

Q) Threshold test, growth < 80%: `COc1ccc(NC(=O)CSc2oc(-c3ccccc3)nc2S(=O)(=O)c2ccc(Cl)cc2)c(OC)c1`
A) TRUE

Q) Threshold test, growth < 80%: CCOC(=O)C1=CCC(n2cc(F)c(=O)[nH]c2=O)O1 (stereo unspecified)
A) FALSE

Q) Threshold test, growth < 80%: `COc1ccc(C(=O)/C=C/c2ccc(Cl)cc2)cc1S(N)(=O)=O`
A) TRUE

Q) Threshold test, growth < 80%: `COc1cc2ncnc(Nc3ccc(S(=O)(=O)Nc4cc(C)on4)cc3)c2cc1OCCCN1CCOCC1`
A) FALSE

Q) Threshold test, growth < 80%: `COc1ccc2c(c1)C(c1c[nH]c3ccccc13)(c1c[nH]c3ccccc13)CCO2`
A) TRUE

Q) Threshold test, growth < 80%: CCOC(=O)C1=C(c2ccccc2)N=C2N(c3ccccc3)N=C(C(C)=O)N2C1c1ccc(Br)cc1 (stereo unspecified)
A) TRUE

Q) Threshold test, growth < 80%: CCN1C(=O)N(CC)C2C1NN=c1s/c(=C\c3ccc([N+](=O)[O-])cc3)c(=O)n12 (stereo unspecified)
A) TRUE

Q) Threshold test, growth < 80%: `COc1ccc(-c2cc(-c3ccc(N(C)C)cc3)nc(NC(=O)c3cccnc3)n2)cc1`
A) FALSE

Q) Threshold test, growth < 80%: `O=C(CSc1nc(-c2ccccc2)cn1-c1ccc(Cl)cc1)c1ccc([N+](=O)[O-])cc1`
A) TRUE

Q) Threshold test, growth < 80%: `O=C(Oc1ccccc1)c1cc(O)c(O)c(O)c1`
A) TRUE

Q) Threshold test, growth < 80%: O=C(OCC(O)(CO)C(=O)NC12CC3CC(CC(C3)C1)C2)c1ccc(Cl)cc1 (stereo unspecified)
A) FALSE

Q) Threshold test, growth < 80%: `Cc1cc(N2CCOCC2)nc(N(CCCNc2ccnc3cc(Cl)ccc23)Cc2ccc3c(c2)OCO3)n1`
A) TRUE

Origin of the recorded values: PubChem BioAssay (NCI)
